Cited source: paper PMC11696143

- targetSystem: T1, FBF-2 RBD+CT L610A (Caenorhabditis elegans, UniProt Q09312 164-632, L610A)
- T1 sequence: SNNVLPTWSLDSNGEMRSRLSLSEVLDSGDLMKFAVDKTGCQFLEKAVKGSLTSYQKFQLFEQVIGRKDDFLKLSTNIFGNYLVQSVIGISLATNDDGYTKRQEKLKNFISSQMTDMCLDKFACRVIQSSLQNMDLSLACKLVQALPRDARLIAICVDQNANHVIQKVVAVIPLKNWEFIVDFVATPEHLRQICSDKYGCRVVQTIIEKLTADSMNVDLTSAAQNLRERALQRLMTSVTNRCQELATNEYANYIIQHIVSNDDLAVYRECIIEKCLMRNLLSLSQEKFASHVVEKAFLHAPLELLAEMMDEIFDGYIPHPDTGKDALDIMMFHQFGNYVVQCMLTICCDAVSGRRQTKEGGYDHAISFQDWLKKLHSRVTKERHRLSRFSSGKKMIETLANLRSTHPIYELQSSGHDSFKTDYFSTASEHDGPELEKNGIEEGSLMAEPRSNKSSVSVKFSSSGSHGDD
- runDescription: EMSA; apparent Kd, Hill fit; EMSA: 5 nM RNA, 10 mM HEPES pH 7.4, 75 mM NaCl, 0.01% Tween 20, 0.1 mg/ml BSA, 0.1 mg/ml yeast tRNA, 2 mM DTT, 4 C overnight
- appliedConditions: protein: recombinant; label: 3'-Cy5
measurementName: pKd
In plain terms, pKd is the concentration in mol/L turned into minus its base-10 logarithm.

Provide one value: measured pKd of AUCAUGUGCCAUACAUCAUGUUGCCAUUU (ssRNA) [gld-1 FBEa-FBEa* (EMSA)]
7.10
